The entries below come with measured composite z-score values attached.
- Test system: Plasmodium falciparum Sir2 (PF13_0152, Sir2A)
- assay.details: pfSir2 binders on small-molecule microarrays, primary screen, biochemical, small-molecule microarray, 635 nm fluorescence (AID 1098);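 also: score merges spot fluorescence intensity with its signal-to-noise ratio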
- settings: small-molecule microarray binding, fluorescence 635 nm; higher = more signal
Form rule: numeric answer, no unit written next to it.

Below, each entry is followed by its recorded composite z-score result.
Consider the molecule `CC(=O)NCCCC[C@@H]1NC(=O)[C@@H]2C[C@H](C(=O)NCCCC[N+](C)(C)C)[C@H](c3ccc(O)cc3)N2C1=O` and give its recorded composite z-score.
1.46

Consider the molecule `COCCCNC(=O)[C@]1(CCS(=O)(=O)c2ccccc2)N=C(c2ccc(OCCCO)cc2)O[C@@H]1c1ccccc1CN=[N+]=[N-]` and give its recorded composite z-score.
1.51

# ---- query molecule ----
Consider the molecule CC(=O)c1ccc(C(O)C2C=CC3C(=O)N(c4ccccc4)C(=O)C3N2Nc2ccc(C#N)cc2)cc1 (stereo not given) and give its recorded composite z-score.
0.45

---

- assay.details: binders of probe aFGF10 on microarray, primary screen, stem cell growth factor project, biochemical, small-molecule microarray, fluorescence 635/667 (AID 1071);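 also: score merges 667 nm spot intensity and signal to noise from triplicate slides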
- settings: higher = more signal
Please mark True if the recorded composite z-score is equal to or greater than 0.5, and False if it falls below.

Observe how each entry below is paired with its result.
hey, is composite z-score for this one >= 0.5? `CCC[C@@H]1C[C@@]1(CCC)[C@@H](NC(=O)OCc1ccccc1)c1ccc(-c2ccccc2)cc1`
False

hey, is composite z-score for this one >= 0.5? `COC(=O)[C@@]1(Cc2ccc(OC)cc2)[C@H]2c3cc(C(=O)N(C)C)n(Cc4ccc(Cl)c(C(F)(F)F)c4)c3C[C@H]2CN1C(=O)c1ccccc1`
False

hey, is composite z-score for this one >= 0.5? CC(C)(C)N1CC=CC23O[C@@H]4C=CCCOC(=O)C4[C@H]2C(=O)N(CCO)[C@@H]3C1=O (some centres undefined)
False

hey, is composite z-score for this one >= 0.5? `[N-]=[N+]=Nc1ccccc1C[C@]1(C(=O)N2CCOCC2)N=C(c2ccc(OCCCO)cc2)O[C@H]1c1ccccc1`
True

hey, is composite z-score for this one >= 0.5? `COC(=O)[C@@]1(Cc2ccc(OC)cc2)[C@H]2c3cc(C(=O)N4CCCC4)n(Cc4cccc5ccccc45)c3C[C@H]2CN1C(=O)c1ccccc1`
True

***
hey, is composite z-score for this one >= 0.5? `O=C(NCC(F)(F)F)[C@@H]1c2ccccc2C(=O)N(Cc2ccc(OC(F)(F)F)cc2)[C@H]1c1ccc(CO)cc1`
False

hey, is composite z-score for this one >= 0.5? `O[C@@H](Cc1ccccc1)[C@@H](/C=C/C1CC1)N(CC#Cc1ccccc1)Cc1cccc(Cl)c1`
False

hey, is composite z-score for this one >= 0.5? `COC(=O)[C@@]1(Cc2ccccc2)[C@H]2c3cc(C(=O)N(C)C)n(CCN4CNCC4=O)c3C[C@H]2CN1C(=O)c1ccccc1`
False

hey, is composite z-score for this one >= 0.5? `Cc1ccc(S[C@]2(C(=O)NCC(F)(F)F)CC(=O)N(C3CCCCC3)[C@@H]2c2ccc(CO)cc2I)cc1`
True

hey, is composite z-score for this one >= 0.5? `COc1ccc(-c2cc3c(c(CCc4ccccc4)n2)[Si](C(C)C)(C(C)C)OC3)cn1`
False
